B1: GNB5 (parent)
chain: YYPSGDAFASGSDDATCRLYDLRA

- Variants of: B1
- test.protocol: protein stability index of a GFP-peptide fusion (GPS, HEK-293T) (PSI 1-6); higher = more stable;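 also: lentivirally expressed fusions sorted by FACS into six bins by GFP to DsRed ratio, PSI derived from sequencing read proportions per bin multiplied by bin number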
- condition.context: c terminus: a fixed tail appended
# reported protein stability index; entries follow
readout: protein stability index

>  <mut>
S12R

>  <result>
2.17

$$$$
>  <mut>
A24Y

>  <result>
2.22

$$$$
>  <mut>
D14G

>  <result>
2.52

$$$$
>  <mut>
Y1R

>  <result>
3.58

$$$$
>  <mut>
G11I

>  <result>
1.89

$$$$
>  <mut>
C17D

>  <result>
3.3

$$$$
>  <mut>
L19A

>  <result>
2.87

$$$$
>  <mut>
Y2L

>  <result>
3.34

$$$$
>  <mut>
G11T

>  <result>
2.28

$$$$
>  <mut>
F8S

>  <result>
4.11

$$$$
>  <mut>
A9H

>  <result>
2.15

$$$$
>  <mut>
T16I

>  <result>
2.18

$$$$
>  <mut>
D21V

>  <result>
1.8

$$$$
>  <mut>
S12M

>  <result>
2.13

$$$$
>  <mut>
F8D

>  <result>
4.4

$$$$
>  <mut>
D13L

>  <result>
1.93

$$$$
>  <mut>
A15G

>  <result>
2.87

$$$$
>  <mut>
D6E

>  <result>
2.43

$$$$
>  <mut>
A9V

>  <result>
2.32

$$$$
>  <mut>
F8N

>  <result>
4.23

$$$$
>  <mut>
Y20F

>  <result>
2.4

$$$$
>  <mut>
S10K

>  <result>
2.25

$$$$
>  <mut>
L19Y

>  <result>
2.57

$$$$
>  <mut>
A24H

>  <result>
2.24

$$$$
>  <mut>
Y1L

>  <result>
3.84

$$$$
